- Assay Name: Determination of the log P values (LC/MS, HCOOH method)
- Format: physicochemical
- Test Parameters: reversed-phase C18 HPLC column, pH 3.4, β isomer of the isomer mixture; HPLC, acidic range (pH 3.4)
Measured Endpoint: chromatographic logP

Sure, the documented chromatographic logP for CCc1cc(C)cc(CC)c1C1=C(O)C2(CCC(OCC(F)(F)F)CC2)OC1=O (stereo not shown) is 3.64

---

- Assay Name: Determination of the log P values (LC/MS, HCOOH method)
- Assay type: physicochemical
- Test Parameters: reversed-phase C18 HPLC column, pH 3.4, HPLC, acidic range (pH 3.4)
Measured Endpoint: chromatographic logP
Please give the numeric answer without any surrounding text.

Smiles Notation	chromatographic logP
CCc1cc(C)cc(C)c1C1=C(OC(=O)C(C)C)[C@]2(CC[C@@H](OCC(F)(F)F)CC2)OC1=O	5.4

# evaluate next
CCc1cc(C)cc(CC)c1C1=C(OC(=O)C(C)C)[C@]2(CC[C@H](OCC(F)(F)F)CC2)OC1=O has a reported chromatographic logP of 5.69

---

Reported log P values follow for various compounds
- Assay Name: Determination of the log P values (LC/MS, HCOOH method)
- Format: physicochemical
- Test Parameters: compounds of formula (I-2-b), single isomer as labelled; HPLC reversed-phase C18, HCOOH method
Field format: numeric only.

Compound	log P
Cc1cc(Cl)cc(C)c1C1=C(OC(=O)C(C)C)C2(CCC(OCC(F)(F)F)CC2)OC1=O (single isomer, unassigned) [Example I-2-b-15]	5.25
Cc1ccc(C)c(C2=C(OC(=O)C(C)C)C3(CCC(OCC(F)(F)F)CC3)OC2=O)c1 (single isomer, unassigned) [Example I-2-b-5]	4.88

The compound listed as COc1cc(C)cc(C)c1C1=C(OC(=O)C(C)C)C2(CCC(OCC(F)(F)F)CC2)OC1=O (single isomer, unassigned) [I-2-b-19] shows log P equal to 4.72

For reference, reported log P for Cc1ccc(C)c(C2=C(OC(=O)C(C)C)C3(CCC(OCC(F)(F)F)CC3)OC2=O)c1 (single isomer, unassigned) [Example I-2-b-6] stands at 4.62

---

- Assay Name: Determination of the log P values (LC/MS, HCOOH method)
- Format: physicochemical
- Test Parameters: compounds of formula (I-2-b), single isomer as labelled; HPLC reversed-phase C18, HCOOH method
- Protocol: Determination of the Log P Values (LC/MS, HCOOH Method): The log P values given in the tables were determined in accordance with EEC Directive 79/831 Annex V.A8 by HPLC (High Performance Liquid Chromatography) using a reversed-phase column (C 18). Temperature: 55° C. […] Mobile phase A: acetonitrile+1 ml formic acid/liter. […] The lambda max values were determined in the maxima of the chromatographic signals using the UV spectra from 200 nm to 400 nm.
Reported log P values are given for each entry in this list.
Simply state the number, no unit and no words.

Examples with answers:
Molecule	Measured Endpoint	Value Observed
Cc1cc(C)c(C2=C(OC(=O)C(C)C)[C@]3(CC[C@H](OCC(F)(F)F)CC3)OC2=O)cc1C [Example I-2-b-7]	log P	5.14
CCc1cc(C)cc(C)c1C1=C(OC(=O)C(C)C)C2(CCC(OCC(F)(F)F)CC2)OC1=O (centres unmarked) [Example I-2-b-4]	log P	5.15
COc1cc(C)cc(C)c1C1=C(OC(=O)C(C)C)C2(CCC(OCC(F)(F)F)CC2)OC1=O (single isomer, unassigned) [I-2-b-20]	log P	4.48
CCc1cc(-c2ccc(Cl)cc2)cc(C)c1C1=C(OC(=O)C(C)C)C2(CCC(OCC(F)(F)F)CC2)OC1=O (single isomer, unassigned) [I-2-b-17]	log P	6.33

// switching to the query molecule
Given item Cc1ccc(-c2ccc(Cl)cc2)cc1C1=C(OC(=O)C(C)C)C2(CCC(OCC(F)(F)F)CC2)OC1=O (centres unmarked) [Example I-2-b-14] , the value recorded as its log P is 5.55
